Test system: PC-3 [JPC-3]
assay.text: relative viability (nuclei count vs DMSO), 5 days (fraction); higher = more cells survive
condition.set: first compound 1.265 µM

compound: COc1cc(N2CCC(C(N)=O)CC2)ccc1Nc1nc(N)c(Cl)c(Nc2ccccc2S(=O)(=O)C(C)C)n1 [HG-5-88-01] + CS(=O)(=O)N1CCN(Cc2cc3nc(-c4cccc5[nH]ncc45)nc(N4CCOCC4)c3s2)CC1 [Pictilisib] (partner 1 µM)
relative viability: 0.494
--
compound: Clc1ccc(Nc2nnc(Cc3ccncc3)c3ccccc23)cc1 [Vatalanib] + CS(=O)(=O)N1CCN(Cc2cc3nc(-c4cccc5[nH]ncc45)nc(N4CCOCC4)c3s2)CC1 [Pictilisib] (partner 1 µM)
relative viability: 0.726
--
compound: Clc1ccc(Nc2nnc(Cc3ccncc3)c3ccccc23)cc1 [Vatalanib] + CS(=O)(=O)CCNCc1ccc(-c2ccc3ncnc(Nc4ccc(OCc5cccc(F)c5)c(Cl)c4)c3c2)o1 [Lapatinib] (partner 2 µM)
relative viability: 0.43

Hello, the source for this data is the supplement of paper PMC10307832, in case you need it.
